Biological target: EZH2 (rPRC2) (Homo sapiens)
Sequence (Q15910 whole entry): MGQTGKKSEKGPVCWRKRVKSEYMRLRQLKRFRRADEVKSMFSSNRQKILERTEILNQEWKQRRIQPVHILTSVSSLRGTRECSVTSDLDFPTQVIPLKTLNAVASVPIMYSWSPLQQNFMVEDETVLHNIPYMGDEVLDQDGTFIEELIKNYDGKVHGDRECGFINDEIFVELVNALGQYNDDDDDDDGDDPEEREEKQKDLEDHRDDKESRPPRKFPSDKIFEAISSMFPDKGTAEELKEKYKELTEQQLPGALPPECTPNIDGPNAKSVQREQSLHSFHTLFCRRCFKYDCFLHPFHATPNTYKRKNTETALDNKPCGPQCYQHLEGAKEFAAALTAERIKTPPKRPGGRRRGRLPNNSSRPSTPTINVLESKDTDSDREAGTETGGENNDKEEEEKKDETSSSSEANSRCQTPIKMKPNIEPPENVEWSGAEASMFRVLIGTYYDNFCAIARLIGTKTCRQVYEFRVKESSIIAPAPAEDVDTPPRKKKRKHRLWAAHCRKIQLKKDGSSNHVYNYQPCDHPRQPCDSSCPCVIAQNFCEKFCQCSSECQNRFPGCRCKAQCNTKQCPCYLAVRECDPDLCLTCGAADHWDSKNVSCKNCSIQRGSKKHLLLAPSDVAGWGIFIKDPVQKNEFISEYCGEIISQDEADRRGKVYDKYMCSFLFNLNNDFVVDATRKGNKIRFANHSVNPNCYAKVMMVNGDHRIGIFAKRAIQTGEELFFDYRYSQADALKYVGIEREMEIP
Sequence (O75530 whole entry partner): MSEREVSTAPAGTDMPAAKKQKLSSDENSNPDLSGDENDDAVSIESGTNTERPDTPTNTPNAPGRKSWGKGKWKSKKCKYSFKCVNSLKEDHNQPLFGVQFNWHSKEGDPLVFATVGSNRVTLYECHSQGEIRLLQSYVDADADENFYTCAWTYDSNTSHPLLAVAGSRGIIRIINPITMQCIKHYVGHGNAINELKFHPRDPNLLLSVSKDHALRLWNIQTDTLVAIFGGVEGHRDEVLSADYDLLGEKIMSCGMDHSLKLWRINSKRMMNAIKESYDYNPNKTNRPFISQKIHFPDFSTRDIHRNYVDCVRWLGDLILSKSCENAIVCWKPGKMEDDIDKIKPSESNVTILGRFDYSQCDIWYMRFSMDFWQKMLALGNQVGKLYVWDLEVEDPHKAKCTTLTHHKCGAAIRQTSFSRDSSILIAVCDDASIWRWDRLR
Sequence (Q15022 whole entry partner): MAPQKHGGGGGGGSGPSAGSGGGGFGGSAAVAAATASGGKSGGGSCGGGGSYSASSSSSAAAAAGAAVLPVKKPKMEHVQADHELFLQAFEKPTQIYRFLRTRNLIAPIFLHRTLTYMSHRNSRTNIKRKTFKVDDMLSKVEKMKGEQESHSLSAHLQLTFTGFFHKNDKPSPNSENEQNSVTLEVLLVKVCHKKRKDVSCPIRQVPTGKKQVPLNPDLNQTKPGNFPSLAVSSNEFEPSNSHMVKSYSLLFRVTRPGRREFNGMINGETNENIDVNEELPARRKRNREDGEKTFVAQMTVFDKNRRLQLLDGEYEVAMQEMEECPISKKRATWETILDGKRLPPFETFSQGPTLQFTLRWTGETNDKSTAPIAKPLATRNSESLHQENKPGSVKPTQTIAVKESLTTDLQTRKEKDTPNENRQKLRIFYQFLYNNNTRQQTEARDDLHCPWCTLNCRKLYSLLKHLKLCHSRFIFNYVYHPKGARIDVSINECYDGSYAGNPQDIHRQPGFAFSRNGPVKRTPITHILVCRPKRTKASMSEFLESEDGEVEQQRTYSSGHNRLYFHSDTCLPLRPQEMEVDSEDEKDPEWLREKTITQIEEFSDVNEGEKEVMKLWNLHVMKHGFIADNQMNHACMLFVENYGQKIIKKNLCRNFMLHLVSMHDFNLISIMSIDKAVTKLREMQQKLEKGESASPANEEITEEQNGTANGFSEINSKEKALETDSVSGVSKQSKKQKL
Assay: EZH2 assay: rPRC2, biotinylated oligonucleosomes, 3H SAM methyl transfer (FlashPlate scintillation)
Assay type: biochemical
Conditions: wild-type EZH2 (rPRC2), biotinylated oligonucleosome substrate; read-out: EZH2 IC50
Kindly state IC50 for each of the entries shown.

Some solved cases for reference:
• CC[C@@H](C)n1c(C)c(C(=O)NCc2c(C)cc(C)[nH]c2=O)c2cnc(C(=O)NC)nc21 = 1000 to 10000 nM
• Cc1cc(C)c(CNC(=O)c2c(C)n(-c3cccc(C)c3C)c3ccccc23)c(=O)[nH]1 = < 100 nM
• COc1cc(C)[nH]c(=O)c1CNC(=O)c1c(C)n(C(C)COc2ccccn2)c2ncccc12 (racemic) = 100 to 1000 nM

The record that follows has no IC50 shown yet.
COCC(C)n1c(C)c(C(=O)NCc2c(OC)cc(C)[nH]c2=O)c2ccc(N3CCNCC3)nc21 (racemic) has a reported IC50 of 100 to 1000 nM

----------
Molecular target: UniProt Q15910
Experiment: EZH2 assay: rPRC2, biotinylated oligonucleosomes, 3H SAM methyl transfer (FlashPlate scintillation)
Type: biochemical
Conditions: EZH2 IC50, wild-type EZH2 (rPRC2), biotinylated oligonucleosome substrate
pIC50: −log10 of the molar value.
Kindly state pIC50 for each of the entries shown.

• Cc1cc(C)c(CNC(=O)c2c(C)n([C@H](C)c3ccccc3)c3nc(N4CCCC4)ncc23)c(O)n1 = 6.00 to 7.00

Parameters: items (list). Returns: pIC50 for each item.
1. COc1cc(C(C)n2c(C)c(C(=O)NCc3c(C)cc(C)[nH]c3=O)c3cccnc32)ccn1 (racemic)
2. Cc1cc(C)c(CNC(=O)c2c(C)n(C(C)C3CCN(C4CN(C)C4)CC3)c3ccccc23)c(=O)[nH]1 (single isomer, unassigned)

A.
> 7.00
> 7.00

Parameters: items (list). Returns: pIC50 for each item.
1. COc1cc(C)[nH]c(=O)c1CNC(=O)c1c(C)n(C(C)C2CCN(C(=O)OCC(C)C)CC2)c2ccccc12 (single isomer, unassigned)
2. COc1cc(C)[nH]c(=O)c1CNC(=O)c1c(C)n(C(C)C2CCN(C)CC2)c2ccccc12 (single isomer, unassigned)
3. COc1cc(C)[nH]c(=O)c1CNC(=O)c1c(C)n(C(C)C2CCN(c3ccccn3)CC2)c2ccccc12 (single isomer, unassigned)
4. COc1cc(C)[nH]c(=O)c1CNC(=O)c1c(C)n(C(C)C2CCOCC2)c2cc(F)ccc12 (single isomer, unassigned)
5. COc1cc(C)[nH]c(=O)c1CNC(=O)c1c(C)n(C(C)CS(C)(=O)=O)c2ccccc12 (single isomer, unassigned) [Compound 279]
6. Cc1cc(C)c(CNC(=O)c2c(C)n(C(C)C3CC3)c3ncccc23)c(=O)[nH]1 (racemic) [Compound 211]
7. CC[C@@H](C)n1c(C)c(C(=O)NCc2c(C)cc(C)[nH]c2=O)c2cnc(C)nc21

A.
["> 7.00", "> 7.00", "> 7.00", "> 7.00", "> 7.00", "> 7.00", "6.00 to 7.00"]

Parameters: items (list). Returns: pIC50 for each item.
1. COc1nccc(C(C)n2c(C)c(C(=O)NCc3c(C)cc(C)[nH]c3=O)c3cccnc32)n1 (racemic)
2. COc1cc(C)[nH]c(=O)c1CNC(=O)c1c(C)n(C(C)C2CCN(CCF)CC2)c2ccccc12 (single isomer, unassigned)
3. Cc1cc(C)c(CNC(=O)c2c(C)n(C(C)c3cccc(C#N)c3)c3ccccc23)c(=O)[nH]1 (single isomer, unassigned) [Compound 228]
4. Cc1cc(C)c(CNC(=O)c2c(C)n(C(C)c3ccn(C)c(=O)c3)c3ccccc23)c(=O)[nH]1 (racemic)
5. COCC(C)n1c(C)c(C(=O)NCc2c(C)cc(C)[nH]c2=O)c2ccncc21 (racemic)

A.
1: 6.00 to 7.00; 2: > 7.00; 3: 6.00 to 7.00; 4: 6.00 to 7.00; 5: > 7.00

Parameters: items (list). Returns: pIC50 for each item.
1. COc1cc(C)[nH]c(=O)c1CNC(=O)c1c(C)n(C(C)C(C)OC)c2ncccc12 (single isomer, unassigned) [Compound 261]
2. Cc1cc(C)c(CNC(=O)c2c(C)n(C(C)CN3CCOCC3)c3ncccc23)c(=O)[nH]1 (racemic)
3. COc1cc(C)[nH]c(=O)c1CNC(=O)c1c(C)n(C2CCCC2)c2ccccc12
4. COc1cccc(C(C)n2c(C)c(C(=O)NCc3c(C)cc(C)[nH]c3=O)c3cccnc32)c1 (racemic)
5. Cc1ccc(C(C)n2c(C)c(C(=O)NCc3c(C)cc(C)[nH]c3=O)c3ccccc32)cc1 (racemic)

A.
["> 7.00", "6.00 to 7.00", "> 7.00", "6.00 to 7.00", "> 7.00"]

Cc1cc(C)c(CNC(=O)c2c(C)n(C(C)c3ccccc3)c3ncccc23)c(=O)[nH]1 (single isomer, unassigned) has a reported pIC50 of > 7.00
